# EXPERIMENTAL SYSTEM: human LSD1(171-852) (Homo sapiens, UniProt O60341)
# Construct: to give hLSD1(171-852) purified product; made in house; host or cells: Escherichia coli C43(DE3) pLysS
# ASSAY PROTOCOL: Measurement of LSD1 inhibitory activity (time-resolved fluorescence, biotin-histone H3 mono methylated K4 peptide)
# Assay type: biochemical
# MEASUREMENT PARAMETERS: read-out: LSD1 IC50 value
Structures can show the parent of a compound that is named as a salt.

COMPOUND: CN(C)c1ccc(CN[C@@H]2C[C@H]2c2ccc(NC(=O)c3cccc(C(F)(F)F)c3)cc2)cc1 (relative stereo) [Example 110, dihydrochloride]
IC50: < 100 nM

COMPOUND: CCCc1ccc(-c2ccc(C(=O)Nc3ccc([C@@H]4C[C@H]4NCC4CC4)cc3)cc2)cc1 (relative stereo) [Example 116]
IC50: 1800 nM

COMPOUND: CCC(CC)N[C@@H]1C[C@H]1c1ccc(NC(=O)c2ccc(-c3ccccc3)cc2)cc1 (relative stereo) [Example 49]
IC50: < 100 nM

COMPOUND: O=C(Nc1ccc([C@@H]2C[C@H]2NCC2CC2)cc1)c1ccc(-c2cnco2)cc1 (relative stereo) [Example 95]
IC50: < 100 nM

COMPOUND: NCCN[C@@H]1C[C@H]1c1ccc(NC(=O)c2ccc(-c3ccccc3)cc2)cc1 (relative stereo) [Example 44]
IC50: < 100 nM

COMPOUND: O=C(Nc1ccc([C@@H]2C[C@H]2NC2CCN(c3ccccc3)CC2)cc1)c1cccc(C(F)(F)F)c1 (relative stereo) [Example 75, dihydrochloride]
IC50: < 100 nM
